# procedure_text: Pharmacokinetics after i.p. delivery: blood and brain concentration by HPLC/MS
# Assay type: in vivo, CD-1 mice
# stated_conditions: mouse, brain, ip; tumor-free CD-1 mice, 25 mg/Kg i.p., 1 h; read-out: Brain concentration
observation_type: concentration at 1 h

C[C@@H]1COCCN1c1cc(C2([S@](C)(=N)=O)CC2)nc(-c2cc[nH]c3nccc2-3)n1 [AZD6738] ... 480 nM

// next item, concentration at 1 h requested
Request the reported concentration at 1 h associated with Cn1c(=O)n(-c2ccc(C(C)(C)C#N)cc2)c2c3cc(-c4cnc5ccccc5c4)ccc3ncc21 [NVP-BEZ235]
36 nM
